Entry source: patent US20250352659A1

# measurement.target: T1, B7H3 (human, UniProt Q5ZPR3 29-534)
# T1 sequence (looked up): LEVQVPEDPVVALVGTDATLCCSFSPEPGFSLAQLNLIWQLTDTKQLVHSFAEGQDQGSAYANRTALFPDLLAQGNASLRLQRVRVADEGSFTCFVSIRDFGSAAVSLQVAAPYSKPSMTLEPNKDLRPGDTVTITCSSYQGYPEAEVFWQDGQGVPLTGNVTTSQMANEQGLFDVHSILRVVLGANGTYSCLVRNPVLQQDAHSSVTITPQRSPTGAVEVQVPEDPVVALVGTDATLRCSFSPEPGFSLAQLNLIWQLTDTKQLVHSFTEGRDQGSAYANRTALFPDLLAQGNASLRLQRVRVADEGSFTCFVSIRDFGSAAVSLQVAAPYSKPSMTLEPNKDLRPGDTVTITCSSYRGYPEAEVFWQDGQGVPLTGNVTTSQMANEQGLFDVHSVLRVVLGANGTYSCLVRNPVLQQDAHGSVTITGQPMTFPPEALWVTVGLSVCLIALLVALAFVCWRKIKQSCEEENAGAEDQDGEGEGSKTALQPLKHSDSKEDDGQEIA
# test.summary: cell-based or functional assay
measure.name: EC50 (nM), ADC direct killing, Capan-1 (Low), 3D
Quick reminder: number only, in nM, skip the unit.

Reference set (3 entries):
| binder | test.value |
| --- | --- |
| ADC4-B (antibody, human IgG1, kappa, V domains shown, conjugator-linker-payload on cysteine thiols after TCEP reduction (DAR8); residues not numbered; structure given only as a drawing) VH: QVQLVQSGAEVKKPGSSVKVSCKASGYTFTNYVMHWVRQAPGQGLEWMGYINPYNDDVKYNEKFKGRVTITADESTSTAYMELSSLRSEDTAVYYCARWGYYGSPLYYFDYWGQGTLVTVSS VL: EIVLTQSPATLSLSPGERATLSCRASSRLIYMHWYQQKPGQAPRPLIYATSNLASGIPARFSGSGSGTDFTLTISSLEPEDFAVYYCQQWNSNPPTFGQGTKVEIKR | 0.5 |
| ADC4-9 (antibody, human IgG1, kappa, V domains shown, conjugator-linker-payload on cysteine thiols after TCEP reduction (DAR8), maleimide hydrolysed; residues not numbered; structure given only as a drawing) VH: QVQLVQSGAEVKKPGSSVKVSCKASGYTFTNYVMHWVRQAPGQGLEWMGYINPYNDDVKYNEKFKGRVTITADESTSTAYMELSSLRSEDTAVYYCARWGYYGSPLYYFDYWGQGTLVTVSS VL: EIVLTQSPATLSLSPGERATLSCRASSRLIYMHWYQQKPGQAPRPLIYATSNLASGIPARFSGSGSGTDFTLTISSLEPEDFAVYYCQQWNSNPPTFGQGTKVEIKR | 0.8 |
| ADC4-10 (antibody, human IgG1, kappa, V domains shown, conjugator-linker-payload on cysteine thiols after TCEP reduction (DAR8), maleimide hydrolysed; residues not numbered; structure given only as a drawing) VH: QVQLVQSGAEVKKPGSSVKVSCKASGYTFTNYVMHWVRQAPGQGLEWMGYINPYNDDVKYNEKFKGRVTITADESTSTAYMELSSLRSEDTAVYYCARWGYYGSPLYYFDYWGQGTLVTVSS VL: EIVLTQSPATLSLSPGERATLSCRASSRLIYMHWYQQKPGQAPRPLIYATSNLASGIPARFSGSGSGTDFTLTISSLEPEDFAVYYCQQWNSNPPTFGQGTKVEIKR | 0.6 |

Shift focus to the following entry.
Ask: State, in one line, measured EC50 (nM), ADC direct killing, Capan-1 (Low), 3D of ADC4-8 (antibody, human IgG1, kappa, V domains shown, conjugator-linker-payload on cysteine thiols after TCEP reduction (DAR8), maleimide hydrolysed; residues not numbered; structure given only as a drawing) VH: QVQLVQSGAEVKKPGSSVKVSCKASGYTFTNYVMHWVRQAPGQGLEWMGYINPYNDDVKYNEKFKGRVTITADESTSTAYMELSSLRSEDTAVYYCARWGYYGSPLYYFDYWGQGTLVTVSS VL: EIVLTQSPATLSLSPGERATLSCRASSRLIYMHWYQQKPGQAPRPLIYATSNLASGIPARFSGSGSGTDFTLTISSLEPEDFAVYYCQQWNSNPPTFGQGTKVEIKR
Result: 1
